- assayNotes: self-splicing fitness, log relative to wild type (ln ratio); higher = more splicing; Tetrahymena group I intron in knt gene, E. coli kanamycin selection, DiMSum; sequences stand for … in CUCUCU…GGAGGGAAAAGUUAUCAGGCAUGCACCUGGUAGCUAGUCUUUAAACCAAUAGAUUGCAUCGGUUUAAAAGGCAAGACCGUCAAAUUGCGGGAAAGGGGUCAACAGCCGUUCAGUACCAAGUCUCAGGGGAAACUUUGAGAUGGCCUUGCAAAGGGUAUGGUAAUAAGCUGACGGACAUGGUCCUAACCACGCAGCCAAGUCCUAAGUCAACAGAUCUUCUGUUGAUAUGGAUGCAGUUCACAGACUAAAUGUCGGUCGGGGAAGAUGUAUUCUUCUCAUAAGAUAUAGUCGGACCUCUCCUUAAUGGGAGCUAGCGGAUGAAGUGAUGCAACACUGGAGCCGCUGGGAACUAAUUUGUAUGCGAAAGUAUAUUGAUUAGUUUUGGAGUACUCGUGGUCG;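 note: selection with 25 µg/mL kanamycin versus none on LB agar overnight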
- particulars: 30 °C
recordedMetric: self-splicing fitness (ln)
The answer should be written as a number, with no unit following it.

AACCAGCAAUAUUACGUCGU | -1.26
AAUCAGCAAUAUUACGUCUG | -1.16
CUACAGCAAUAUUACGAGAC | -4.15
AUGAAGCAAUAUUACGUUUG | -2.28
GGUGAGCAAUAUUACGGCAG | -2.25
GCGCAGCAAUAUUACGCGUG | -1.93
AAGUAGCAAUAUUACGCCCA | -1.95
UUGGAGCAAUAUUACGACCA | -3.12
CCCGAGCAAUAUUACGGUAU | -3.43
UAACAGCAAUAUUACGUCCC | -2.98

Please indicate self-splicing fitness (ln) recorded for GUCCAGCAAUAUUACGAUUA -0.767

Please indicate self-splicing fitness (ln) recorded for UAUCAGCAAUAUUACGUCUU -1.65

Please indicate self-splicing fitness (ln) recorded for UACAAGCAAUAUUACGUGCA -0.352

Please indicate self-splicing fitness (ln) recorded for CAAGAGCAAUAUUACGCACU -3.06

Please indicate self-splicing fitness (ln) recorded for CAAGAGCAAUAUUACGAGAU -3.29

Please indicate self-splicing fitness (ln) recorded for GGUAAGCAAUAUUACGUGUA -1.73
